# ASSAY COMMENT: Surface tension at air-liquid interface at CMC, Wilhelmy plate method
# Type: physicochemical
# MEASUREMENT CONDITIONS: 25° C. and atmospheric pressure

| MOLECULE | UOM | Surface Tension at CMC |
| --- | --- | --- |
| CCCCCCCCCCOCCOCCOCCOCCOCCOCCO [Example C10E6, hexaethylene glycol monodecyl ether, reference compound] | mN/m | 42 |
| CCCCCCCCNC(=O)C(O)CC[S+](C)[O-] (centres unmarked) | mN/m | 29 |
| CCCCCCCCOC(=O)C(O)CC[S+](C)[O-] (centres unmarked) | mN/m | 29 |
| CCCCCCCCCCCCOCCOCCOCCOCCOCCOCCO [Example C12E6, hexaethylene glycol monododecyl ether, reference compound] | mN/m | 41 |
| CCCCCCOC(=O)C(O)CC[S+](C)[O-] (centres unmarked) | mN/m | 33 |

###

# ASSAY COMMENT: Critical micelle concentration (CMC), Wilhelmy plate method
# Type: physicochemical
# MEASUREMENT CONDITIONS: in water at 25° C. and atmospheric pressure
Friendly reminder: CMC below 10 mM is Yes, at or above is No.

| MOLECULE | CLASS |
| --- | --- |
| CCCCCCOC(=O)C(O)CC[S+](C)[O-] (centres unmarked) | No |
| CCCCCCCCNC(=O)C(O)CC[S+](C)[O-] (centres unmarked) | No |
| CCCCCCCCCCOCCOCCOCCOCCOCCOCCO [Example C10E6, hexaethylene glycol monodecyl ether, reference compound] | Yes |
| CCCCCCCCCCCCOCCOCCOCCOCCOCCOCCO [Example C12E6, hexaethylene glycol monododecyl ether, reference compound] | Yes |
| CCCCCCCCOC(=O)C(O)CC[S+](C)[O-] (centres unmarked) | No |
